- Tested on: NCI/ADR-RES ovarian
- MEASUREMENT NOTES: NCI tumour cell line growth inhibition, 48 h
ENDPOINT NAME: TGI

Sample answers from the record:
>  <MOLECULE>
CN1CCCCC1CCN1c2ccccc2Sc2ccc(S(C)=O)cc21 (stereo unspecified)

>  <TGI>
> 100 µM

$$$$
>  <MOLECULE>
Cc1nc2c(ncn2CCO)c(=O)[nH]1

>  <TGI>
> 100 µM

$$$$
>  <MOLECULE>
COc1ccc(-c2coc3cc(OC)cc(O)c3c2=O)cc1

>  <TGI>
> 100 µM

$$$$

Tell me its TGI given C=C1N(C)c2ccc(Cl)cc2C1(C)C as the entry. > 100 µM

Read off the recorded TGI for CCc1ccc(Nc2cc(C)nc3nc(C)nn23)cc1 > 100 µM

# return recorded TGI for input O=C(/C=C/c1cccnc1)c1ccccc1O > 100 µM

----------
- Tested on: HT29 colon
- MEASUREMENT NOTES: NCI tumour cell line growth inhibition, 48 h
ENDPOINT NAME: TGI (µM)
The reply should be a number in µM, with the unit left off.

Worked examples follow.
>  <MOLECULE>
C=C1N(C)c2ccc(Cl)cc2C1(C)C

>  <TGI (µM)>
18.6

$$$$
>  <MOLECULE>
C[C@@]1(N2C(=O)OC[C@@H]2c2ccccc2)C(=O)N([C@H](CC(=O)N2CCC(N3CCCCC3)CC2)C(=O)NCc2cccc(C(F)(F)F)c2)[C@@H]1/C=C/c1ccccc1

>  <TGI (µM)>
5.7

$$$$

// switching to the query molecule
Let me know recorded TGI for CCC(/C(=N\Nc1c(Cl)cc(Cl)cc1Cl)c1ccccc1)n1ccnc1C (stereo unspecified) , thanks. 21.4

----------
- System: NCI-H226 lung
- MEASUREMENT NOTES: NCI tumour cell line growth inhibition, 48 h
ENDPOINT NAME: TGI (µM)
Only the number, expressed in µM, is required.

Example entries begin here.
>  <COMPOUND>
COC(=O)CCC(=O)c1ccc2c(c1)CC1(C2)Cc2ccc3c(c2C1)CCCC3=O (configuration not stated)

>  <UNIT ABBREVIATION>
µM

>  <TGI>
85.6

$$$$
>  <COMPOUND>
Cn1c(=S)sc2nc3ccccc3n2c1=S

>  <UNIT ABBREVIATION>
µM

>  <TGI>
58.7

$$$$
>  <COMPOUND>
Nc1ccc(N)c2c1C(=O)c1c(N)ccc(N)c1C2=O

>  <UNIT ABBREVIATION>
µM

>  <TGI>
67.8

$$$$

Look up and report measured TGI for this entry: CCC(/C(=N\Nc1c(Cl)cc(Cl)cc1Cl)c1ccccc1)n1ccnc1C (configuration not stated) 35

----------
- Tested on: RPMI-8226 leukemia
- MEASUREMENT NOTES: NCI tumour cell line growth inhibition, 48 h
Documented TGI across a set of molecules

>  <MOLECULE>
CC1(C)OC(=O)C(=C2CC(c3ccccc3)c3ccccc32)C(=O)O1 (stereo not drawn)

>  <ASSAYED TARGET>
RPMI-8226 leukemia

>  <RESULT VALUE>
> 100 µM

$$$$
>  <MOLECULE>
CCOP(C)(=O)C(Nc1ccc(F)cc1)c1ccc(F)cc1 (stereo not drawn)

>  <ASSAYED TARGET>
RPMI-8226 leukemia

>  <RESULT VALUE>
> 100 µM

$$$$

Report TGI, nothing else, for this molecule: CN1CCCCC1CCN1c2ccccc2Sc2ccc(S(C)=O)cc21 (stereo not drawn) > 100 µM

----------
- System: PC-3 prostate
- MEASUREMENT NOTES: NCI tumour cell line growth inhibition, 48 h
# TGI per record follows
Reply numerically in µM, unit not repeated.

>  <COMPOUND>
Cc1ccc(C)c(NC(=O)C(Cc2c[nH]c3ccccc23)NC(=O)OCc2ccccc2)c1 (stereo not given)

>  <UNIT ABBREVIATION>
µM

>  <RESULT VALUE>
28.6

$$$$

Entry C/C(=N\Nc1nc2ccccc2o1)c1ccncn1 needs its TGI filled in; supply it. 36.6

----------
- Test system: HT29 colon
- MEASUREMENT NOTES: NCI tumour cell line growth inhibition, 48 h
ENDPOINT NAME: TGI

In the examples that follow, each entry is paired with its recorded TGI.
>  <COMPOUND>
CC(=O)OCC1OC(n2c(-c3ccccc3)c(C)c(C)c(C#N)c2=S)C(OC(C)=O)C(OC(C)=O)C1OC(C)=O (stereo not drawn)

>  <RESULT VALUE>
> 100 µM

$$$$
>  <COMPOUND>
CC(=O)Nc1ccc(-c2nc3ccccc3s2)cc1O

>  <RESULT VALUE>
> 100 µM

$$$$

Here is the next item to consider.
Please give measured TGI of the following entry: CCNCCNC(=O)c1ccc(Br)cc1 > 100 µM

----------
The following compounds are listed with their measured TGI values.
- Test system: NCI-H226 lung
- MEASUREMENT NOTES: NCI tumour cell line growth inhibition, 48 h

>  <COMPOUND>
O=C(CSc1nnc(-c2ccc(N=Cc3ccc(Cl)cc3)cc2)o1)Nc1cccc(Cl)c1

>  <TGI>
> 100 µM

$$$$
>  <COMPOUND>
O=c1[nH]c(=O)n(C2CC(O)C(CO)O2)cc1C#Cc1cc(F)cc(F)c1 (stereo not drawn)

>  <TGI>
> 100 µM

$$$$

Read the next record carefully.
Given COc1ccc([C@@H]2CC(=O)NCCCCNCCCN2)cc1 , respond with its TGI. > 100 µM

----------
Reported TGI is given for each of the following compounds.
- Test system: PC-3 prostate
- MEASUREMENT NOTES: NCI tumour cell line growth inhibition, 48 h

>  <COMPOUND>
COC1(C)C=NCC(C)(C)NC(=O)C(C)(OC)C=NCC(C)(C)NC1=O (stereo not drawn)

>  <ASSAYED TARGET>
PC-3 prostate

>  <TGI>
> 10 µM

$$$$
>  <COMPOUND>
CC[C@@]1(O)C(=O)OCc2c1cc1n(c2=O)Cc2c-1nc1ccccc1c2/C=N\NC(=O)C(C)N (stereo partly drawn)

>  <ASSAYED TARGET>
PC-3 prostate

>  <TGI>
> 100 µM

$$$$

Let us examine a further case.
Supply measured TGI of CCn1cnc2c(NC(C)=O)ncnc21 in your reply. > 100 µM

Origin of the recorded values: PubChem BioAssay (NCI)
